Reference source for all entries: PubChem BioAssay (EPA / NIEHS)

# Read-out: Human Leukocyte Antigen - DR isotype (HLADR), HLA-DRA (gene 3122)
# Protocol Text: BSK_BE3C_HLADR: BioMAP Diversity Plus: BE3C Assay for Human Leukocyte Antigen - DR isotype (HLADR) Biomarker Activity (AID 2283032)
# Measurement Parameters: primary human bronchial epithelial cells; actives raise or lower the signal
Calls of active or inactive are those of the source. Rule for the calls: active = hit-call score of the fitted dose curve at least 0.9, where 1 is the maximum; inactive = score below 0.9.
Outcomes: active, inactive

| Molecule | Assigned Label |
| --- | --- |
| CC(C)C(=O)OCC(C)(C)C(OC(=O)C(C)C)C(C)C (stereo not drawn) | inactive |
| CCCCCCCCCc1ccc(O)cc1 | active |
| Cc1cc(O)ccc1Cl | inactive |
| Cc1cccc(C)c1N | inactive |
| CCOP(=S)(OCC)SCSC(C)(C)C | inactive |
| CCSC(=O)N(CC)C1CCCCC1 | inactive |
| CCOCCOC(C)=O | inactive |
| Oc1ccc(Cl)cc1Cl | inactive |

###

# Tested On: Estrogen receptor (Homo sapiens) (UniProt P03372)
# Sequence (P03372 whole entry, looked up): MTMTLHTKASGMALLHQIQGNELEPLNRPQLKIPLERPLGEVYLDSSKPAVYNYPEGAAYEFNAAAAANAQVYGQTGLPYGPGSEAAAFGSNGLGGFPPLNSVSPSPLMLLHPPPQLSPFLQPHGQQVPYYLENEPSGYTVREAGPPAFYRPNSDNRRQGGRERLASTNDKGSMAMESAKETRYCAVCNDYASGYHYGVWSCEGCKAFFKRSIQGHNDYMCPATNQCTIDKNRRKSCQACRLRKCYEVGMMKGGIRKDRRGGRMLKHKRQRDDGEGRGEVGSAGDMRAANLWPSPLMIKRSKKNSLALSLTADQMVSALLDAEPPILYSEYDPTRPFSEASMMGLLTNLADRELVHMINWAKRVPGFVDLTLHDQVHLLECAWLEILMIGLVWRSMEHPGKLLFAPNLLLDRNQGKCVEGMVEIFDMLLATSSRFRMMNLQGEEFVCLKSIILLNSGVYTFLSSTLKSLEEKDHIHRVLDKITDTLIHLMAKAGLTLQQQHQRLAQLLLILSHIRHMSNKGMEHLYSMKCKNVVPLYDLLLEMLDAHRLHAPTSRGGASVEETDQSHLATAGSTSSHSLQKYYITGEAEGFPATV
# Protocol Text: OT_ER_ERaERa_1440: Odyssey Thera (OT) 24-hour HEK293T Protein-Complementation Assay for Estrogen Receptor-alpha/-alpha Homodimer (AID 2283349);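 note: hits raise fluorescence above DMSO for agonists and antagonists alike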
The source made the active and inactive calls. The calls were made as follows: active = hit-call score of the fitted dose curve at least 0.9, where 1 is the maximum; inconclusive = response in the unintended direction; inactive = score below 0.9.
Outcomes: active, inactive

| Compound | Tested On | Assigned Label |
| --- | --- | --- |
| Clc1ccc(C(Cl)(Cl)Cl)cc1 | Estrogen receptor (Homo sapiens) (UniProt P03372) | inactive |
| CO/C=C(/C(=O)OC)c1ccccc1COc1cccc(C(F)(F)F)n1 | Estrogen receptor (Homo sapiens) (UniProt P03372) | inactive |
| CCOC(=O)C(O)(c1ccc(Cl)cc1)c1ccc(Cl)cc1 | Estrogen receptor (Homo sapiens) (UniProt P03372) | inactive |
| O=C(NC(=O)c1c(F)cccc1F)Nc1cc(Cl)c(OC(F)(F)C(F)F)c(Cl)c1 | Estrogen receptor (Homo sapiens) (UniProt P03372) | inactive |
| O=NN(c1ccccc1)c1ccccc1 | Estrogen receptor (Homo sapiens) (UniProt P03372) | inactive |
| CC1=C2C[C@H]3[C@@H](CC=C4C[C@@H](O)CC[C@@]43C)[C@@H]2CC[C@]12O[C@@H]1C[C@H](C)CN[C@H]1[C@H]2C | Estrogen receptor (Homo sapiens) (UniProt P03372) | inactive |
| Oc1c(Cl)c(Cl)c(Cl)c(Cl)c1Cl | Estrogen receptor (Homo sapiens) (UniProt P03372) | inactive |
| CCCCCCOC(=O)c1ccccc1C(=O)OCCCCCC | Estrogen receptor (Homo sapiens) (UniProt P03372) | inactive |
| CN(C)CCO | Estrogen receptor (Homo sapiens) (UniProt P03372) | inactive |
| O=C(O)C(F)(F)C(F)(F)C(F)(F)C(F)(F)C(F)(F)C(F)(F)C(F)(F)C(F)(F)F | Estrogen receptor (Homo sapiens) (UniProt P03372) | inactive |
| CCCCCCCCCC[N+](C)(C)CCCCCCCCCC | Estrogen receptor (Homo sapiens) (UniProt P03372) | inactive |
| COc1ccc(O)c(C(C)(C)C)c1 | Estrogen receptor (Homo sapiens) (UniProt P03372) | inactive |
| CCOCCOC(C)=O | Estrogen receptor (Homo sapiens) (UniProt P03372) | inactive |
| Oc1ccc(Cl)cc1Cl | Estrogen receptor (Homo sapiens) (UniProt P03372) | inactive |
| Cc1cccc([N+](=O)[O-])c1 | Estrogen receptor (Homo sapiens) (UniProt P03372) | inactive |
| O=C(N[C@H]1CN2CCC1CC2)c1cc2ccoc2cn1 | Estrogen receptor (Homo sapiens) (UniProt P03372) | inactive |
| C[C@]12CCC(=O)C=C1CC[C@@H]1[C@@H]2CC[C@]2(C)C(=O)CC[C@@H]12 | Estrogen receptor (Homo sapiens) (UniProt P03372) | inactive |
| CC(c1ccc(O)cc1)(c1ccc(O)cc1)c1ccc(O)cc1 | Estrogen receptor (Homo sapiens) (UniProt P03372) | active |
| C1CC2OC2CC1C1CO1 (configuration not stated) | Estrogen receptor (Homo sapiens) (UniProt P03372) | inactive |
| O=S(=O)(O)C(F)(F)C(F)(F)C(F)(F)C(F)(F)F | Estrogen receptor (Homo sapiens) (UniProt P03372) | inactive |
| CCOP(=S)(OCC)SCSC(C)(C)C | Estrogen receptor (Homo sapiens) (UniProt P03372) | inactive |
| ClC1=C(Cl)[C@]2(Cl)[C@@H]3[C@@H]4C[C@@H]([C@H]5O[C@@H]45)[C@@H]3[C@@]1(Cl)C2(Cl)Cl | Estrogen receptor (Homo sapiens) (UniProt P03372) | inactive |
| O=C(O)C(F)(F)C(F)(F)C(F)(F)C(F)(F)C(F)(F)F | Estrogen receptor (Homo sapiens) (UniProt P03372) | inactive |
| Cc1cccc(C)c1N | Estrogen receptor (Homo sapiens) (UniProt P03372) | inactive |
| CCCN(CCC)N=O | Estrogen receptor (Homo sapiens) (UniProt P03372) | inactive |
| O=S(=O)(O)C(F)(F)C(F)(F)C(F)(F)C(F)(F)C(F)(F)C(F)(F)F | Estrogen receptor (Homo sapiens) (UniProt P03372) | inactive |
| OCC(O)CO | Estrogen receptor (Homo sapiens) (UniProt P03372) | inactive |
| ClC1=C(Cl)[C@]2(Cl)[C@@H]3[C@H]4C[C@H]([C@@H]5O[C@H]45)[C@@H]3[C@@]1(Cl)C2(Cl)Cl | Estrogen receptor (Homo sapiens) (UniProt P03372) | inactive |
| Cc1cc(O)ccc1Cl | Estrogen receptor (Homo sapiens) (UniProt P03372) | inactive |
| Sc1ccccc1 | Estrogen receptor (Homo sapiens) (UniProt P03372) | inactive |
| C=CC(N)=O | Estrogen receptor (Homo sapiens) (UniProt P03372) | inactive |
| CCC(C)c1cc([N+](=O)[O-])cc([N+](=O)[O-])c1O (configuration not stated) | Estrogen receptor (Homo sapiens) (UniProt P03372) | inactive |

###

# Protocol Text: ATG_CMV_CIS: Attagene CIS-FACTORIAL HepG2 Assay for human CMV (Internal Marker) (AID 2282928);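 note: endpoint acts as a background internal control marker rather than a target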
# Measurement Parameters: HepG2 CMV promoter reporter, transcription factor profiling; actives raise or lower the signal
Activity calls are given as the source filed them. How the source made its calls: active means hit-call score of the fitted dose curve at least 0.9, where 1 is the maximum; inactive means score below 0.9.
Classes used: active, inactive

| Compound | Assigned Label |
| --- | --- |
| Cc1cc(O)ccc1Cl | inactive |
| CC(C)C(=O)OCC(C)(C)C(OC(=O)C(C)C)C(C)C (centres undefined) | inactive |
| C=CC(=O)NCNC(=O)C=C | inactive |
| C1CC2OC2CC1C1CO1 (centres undefined) | inactive |
| CCCCCCCCOC(=O)c1ccccc1C(=O)OCCCCCCCC | inactive |
| CC(c1ccc(O)cc1)(c1ccc(O)cc1)c1ccc(O)cc1 | active |
| O=C(NC(=O)c1cc(F)c(F)cc1Cl)Nc1cc(F)ccc1N1CCC(C(=O)O)CC1 | inactive |
| Cc1ccccc1CO[C@@H]1C[C@@]2(C(C)C)CC[C@]1(C)O2 | inactive |
| CCOP(=S)(OCC)SCSC(C)(C)C | inactive |

###

# Read-out: 3-Hydroxy-3-Methylglutaryl-CoA Synthase 2 (HMGCS2), HMGCS2 (gene 3158)
# Protocol Text: LTEA_HepaRG_HMGCS2: Life Technologies and Expression Analysis (LTEA) Assay for 3-Hydroxy-3-Methylglutaryl-CoA Synthase 2 (HMGCS2) using HepaRG (AID 2283504)
# Measurement Parameters: mRNA level, 48 h; actives raise or lower the signal
Calls of active or inactive are those of the source. How the source made its calls: active means hit-call score of the fitted dose curve at least 0.9, where 1 is the maximum; inactive means score below 0.9.
Property Measured: AC50

| Molecule | Result |
| --- | --- |
| COS(=O)(=O)OC | inactive |
| Nc1ccc(-c2ccc(N)cc2)cc1 | inactive |
| CCC(C)c1cc([N+](=O)[O-])cc([N+](=O)[O-])c1O (centres undefined) | 2.93 µM (active) |
| CCC(C)(c1ccc(O)cc1)c1ccc(O)cc1 | inactive |
| Oc1c(Cl)c(Cl)c(Cl)c(Cl)c1Cl | 4.84 µM (active) |
| Cc1cccc([N+](=O)[O-])c1 | inactive |
| C[C@]12CCC(=O)C=C1CC[C@@H]1[C@@H]2CC[C@]2(C)C(=O)CC[C@@H]12 | inactive |
| Cc1ccccc1[N+](=O)[O-] | inactive |
| CCCCCCCCCc1ccc(O)cc1 | 50 µM (active) |

###

# Read-out: Tumor necrosis factor receptor superfamily member 6 (Homo sapiens) (UniProt P25445)
# Protocol Text: LTEA_HepaRG_FAS: Life Technologies and Expression Analysis (LTEA) Assay for Fas cell surface death receptor (FAS) using HepaRG (AID 2283447)
# Measurement Parameters: mRNA level, 48 h; actives raise or lower the signal
Calls of active or inactive are those of the source. How the source made its calls: active means hit-call score of the fitted dose curve at least 0.9, where 1 is the maximum; inactive means score below 0.9.
Labels: 1 for active, 0 for inactive

| Chem Smiles | Assigned Label |
| --- | --- |
| CO/C=C(/C(=O)OC)c1ccccc1COc1cccc(C(F)(F)F)n1 | 1 |
| CCOCCOC(C)=O | 0 |
| CC(C)(O)C(=O)Nc1ccc([N+](=O)[O-])c(C(F)(F)F)c1 | 1 |
| CCC(=O)O[C@H]1CC[C@H]2[C@@H]3CCC4=CC(=O)CC[C@]4(C)[C@H]3CC[C@]12C | 0 |
| COS(=O)(=O)OC | 0 |
